system: U-251; experiment: Cytotoxicity against human U251 cells assessed as cellular growth at 10 uM by SRB assay; assay type: functional
Each entry gets Criterion not met if its Activity stays under 90%, and Criterion met if its Activity is 90% or above.

Use these answered entries as a reference point.
CC1(C)CCc2cc(-c3ccn(S(=O)(=O)c4ccccc4Cl)n3)ccc2O1: Criterion not met
N#Cc1ccc(NC(=O)c2sc3nc4c(cc3c2N)C(=O)CCC4)cc1: Criterion met
O=c1/c(=C/c2ccccc2)sc2nc(-c3ccc(Cl)cc3Cl)nn12: Criterion met
Cc1c(OCC(=O)c2ccccc2)ccc2c1oc(=O)c1ccccc12: Criterion met
O=C(Nc1nc2ccc(Cl)cc2s1)c1ccc(Cl)cc1Cl: Criterion met
Clc1ccccc1Nc1nnc(-c2ccncc2)s1: Criterion met
CC1(C)CCc2cc(-c3ccn(S(=O)(=O)c4ccc(Cl)cc4)n3)ccc2O1: Criterion not met

(Q) Could you please find out whether "COc1cc(/C=c2/sc3nc4ccccc4n3c2=O)cc(I)c1O" has Activity that meets 90% or exceeds it?
(A) Criterion met
